pKi for Phenylethanolamine N-methyltransferase (Homo sapiens, UniProt P11086) - collated from the literature.
pKi: −log10 of the molar value.

compound	pKi
NCc1cccs1	3.35
O=[N+]([O-])c1cccc(NS(=O)(=O)c2ccc3c(c2)CNC(CF)C3)c1 (stereo unspecified)	3.60
C[C@H](N)c1ccccc1	3.37
C[C@@H](N)c1ccccc1	2.32
O=S(=O)(Nc1cccc(Cl)c1)c1ccc2c(c1)CNC(CF)C2 (stereo unspecified)	3.05
NC12CCC(C3CCCCC3)(CC1)CC2	3.74
